procedure.text: Dark toxicity in human HeLa cells assessed as reduction in cell viability by MTT assay
Format: cell-based
pIC50: −log10 of the molar value.
reported.property: pIC50

compound_string=O=C1C(I)=C(O)C(=C2C(=O)C(c3c(O)c(I)c(O)c(I)c3O)=C2O)C(O)=C1I result="< 4.30"

###

procedure.text: Dark toxicity in human […] cells assessed as cell viability at 50 ug/ml by CCK8 assay
Assay type: cell-based
condition.label: read-out: Activity
reported.property: viability at 50 ug/ml

compound_string=CCN(CC)c1ccc(/C=C2\CC/C(=C\c3ccc(N(CCC(=O)O)CCC(=O)O)cc3)C2=O)cc1 reported_property="viability at 50 ug/ml" result="> 70%"
compound_string=O=C(O)CCN(CCC(=O)O)c1ccc(/C=C2\CC/C(=C\c3ccc(N(CCC(=O)O)CCC(=O)O)cc3)C2=O)cc1 reported_property="viability at 50 ug/ml" result="> 70%"
compound_string=CCN(CC)c1ccc(/C=C2\CC/C(=C\c3ccc(N(C)CCC(=O)O)cc3)C2=O)cc1 reported_property="viability at 50 ug/ml" result="< 30%"
compound_string=CN(CCC(=O)O)c1ccc(/C=C2\CC/C(=C\c3ccc(N(C)CCC(=O)O)cc3)C2=O)cc1 reported_property="viability at 50 ug/ml" result="> 70%"

###

Entries and their measured inhibition at 24 h, up to 25 µM follow.
procedure.text: Dark toxicity in human BxPC3 cells assessed as inhibition of cell growth at 6.25 to 25 uM incubated for 24 hrs by MTT assay
Type: cell-based, BXPC-3
condition.label: read-out: GI
reported.property: inhibition at 24 h, up to 25 µM

compound_string=CC1(C)C(/C=C/C2=C(Cl)C(=C/C=C3/N(CCCCS(=O)(=O)O)c4ccc(I)cc4C3(C)C)/CCC2)=[N+](CCCCS(=O)(=O)O)c2ccc(I)cc21 result=0%
compound_string=CC1(C)C(/C=C/C=C/C=C/C=C2\N(CCCCS(=O)(=O)O)c3ccc4ccccc4c3C2(C)C)=[N+](CCCCS(=O)(=O)[O-])c2ccc3ccccc3c21 result=0%
compound_string=CC1(C)C(/C=C/C2=C(Cl)C(=C/C=C3/N(CCCCS(=O)(=O)O)c4cc(I)cc(I)c4C3(C)C)/CCC2)=[N+](CCCCS(=O)(=O)O)c2cc(I)cc(I)c21 result=0%

###

procedure.text: Dark toxicity in mouse B16F10 cells assessed as reduction in cell viability after 24 hrs by MTT assay
Type: cell-based, B16-F10
reported.property: IC50 at 24 h

compound_string=CCN1/C(=C\C=C\c2sc3cc4c(cc3[n+]2CC)sc(/C=C/C=C2\N(CC)c3ccccc3C2(C)C)[n+]4CC)C(C)(C)c2ccccc21 result="20 µM"

###

Tested on: MCF-10A
procedure.text: Phototoxicity in human MCF10A cells assessed as reduction in cell viability pre-incubated for 1 hr before photo-irradiation with 700 mW-630 nm laser light for 15 mins by MTT assay
Assay type: cell-based
condition.label: light or radiation study
pIC50: −log10 of the molar value.
reported.property: pIC50

compound_string=O=C1C(I)=C(O)C(=C2C(=O)C(c3c(O)c(I)c(O)c(I)c3O)=C2O)C(O)=C1I reported_property=pIC50 result_number=4.35

###

procedure.text: Phototoxicity in human SCC131 cells assessed as reduction in cell viability pre-incubated for 1 hr before photo-irradiation with 700 mW-630 nm laser light for 15 mins by MTT assay
Assay type: functional, cell-based
condition.label: SCC131, light or radiation study
reported.property: IC50 (µM)

compound_string=O=C1C(I)=C(O)C(=C2C(=O)C(c3c(O)c(I)c(O)c(I)c3O)=C2O)C(O)=C1I reported_property=IC50 unit_descriptor=µM result_number=30.7

###

procedure.text: Dark toxicity in human MDA-MB-231 cells assessed as reduction in cell viability by MTT assay
Type: cell-based
pIC50: −log10 of the molar value.
reported.property: pIC50

compound_string=O=C1C(I)=C(O)C(=C2C(=O)C(c3c(O)c(I)c(O)c(I)c3O)=C2O)C(O)=C1I reported_property=pIC50 result="< 4.30"

###

procedure.text: Dark toxicity in human MIAPaCa2 cells assessed as inhibition of cell growth at 6.25 to 25 uM incubated for 24 hrs by MTT assay
Format: cell-based, MIA PaCa-2
condition.label: read-out: GI
reported.property: inhibition at 24 h, up to 25 µM (%)

compound_string=CC1(C)C(/C=C/C=C/C=C/C=C2\N(CCCCS(=O)(=O)O)c3ccc4ccccc4c3C2(C)C)=[N+](CCCCS(=O)(=O)[O-])c2ccc3ccccc3c21 reported_property="inhibition at 24 h, up to 25 µM" result_number=0
compound_string=CC1(C)C(/C=C/C2=C(Cl)C(=C/C=C3/N(CCCCS(=O)(=O)O)c4cc(I)cc(I)c4C3(C)C)/CCC2)=[N+](CCCCS(=O)(=O)O)c2cc(I)cc(I)c21 reported_property="inhibition at 24 h, up to 25 µM" result_number=0
compound_string=CC1(C)C(/C=C/C2=C(Cl)C(=C/C=C3/N(CCCCS(=O)(=O)O)c4ccc(I)cc4C3(C)C)/CCC2)=[N+](CCCCS(=O)(=O)O)c2ccc(I)cc21 reported_property="inhibition at 24 h, up to 25 µM" result_number=0

###

procedure.text: Dark toxicity in human A431 cells assessed as reduction in cell viability after 72 hrs by MTT assay
Assay type: cell-based, A-431
reported.property: GI50 at 72 h

compound_string=Cn1ccc2c1-c1[nH]c(=O)ncc1CC2 result="> 20 µM"
compound_string=CCOC(=O)c1cc2c(n1Cc1ccc(C)cc1)-c1nc(N)ncc1CC2 result="> 20 µM"
compound_string=CCOC(=O)c1cc2c(n1C)-c1[nH]c(=O)ncc1CC2 result="> 20 µM"

###

procedure.text: Dark toxicity in human Jurkat cells assessed as reduction in cell viability after 72 hrs by MTT assay
Type: cell-based
reported.property: GI50 at 72 h

compound_string=CCOC(=O)c1cc2c(n1Cc1ccc(C)cc1)-c1nc(N)ncc1CC2 result="> 20 µM"
compound_string=Cn1ccc2c1-c1[nH]c(=O)ncc1CC2 result="> 20 µM"
compound_string=CCOC(=O)c1cc2c(n1C)-c1nc(N)ncc1CC2 result="> 20 µM"
